# TESTED_SYSTEM: acetylcholinesterase
# Sequence (P22303 32-614): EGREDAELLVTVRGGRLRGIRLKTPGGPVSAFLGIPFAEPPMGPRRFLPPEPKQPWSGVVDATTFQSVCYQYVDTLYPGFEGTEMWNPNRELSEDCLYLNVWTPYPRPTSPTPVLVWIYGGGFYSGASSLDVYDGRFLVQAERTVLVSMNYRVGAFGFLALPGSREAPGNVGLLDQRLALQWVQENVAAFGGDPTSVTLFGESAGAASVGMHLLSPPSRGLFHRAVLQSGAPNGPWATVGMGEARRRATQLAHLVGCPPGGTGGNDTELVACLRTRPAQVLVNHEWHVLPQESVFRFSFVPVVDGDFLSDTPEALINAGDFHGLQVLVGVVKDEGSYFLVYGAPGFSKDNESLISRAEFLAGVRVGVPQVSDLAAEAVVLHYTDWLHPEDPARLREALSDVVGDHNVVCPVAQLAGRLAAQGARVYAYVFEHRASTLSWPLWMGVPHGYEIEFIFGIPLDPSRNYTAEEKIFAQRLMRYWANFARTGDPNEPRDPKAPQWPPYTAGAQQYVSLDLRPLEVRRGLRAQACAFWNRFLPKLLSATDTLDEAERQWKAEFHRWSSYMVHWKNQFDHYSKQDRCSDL
# PROCEDURE_DETAILS: Acetylcholinesterase Inhibition Assay (photometric method of Ellman et al.)
# Type: biochemical
QUANTITY_KIND: IC50 (nM)

SMILES_REPRESENTATION | TESTED_SYSTEM | QUANTITY_KIND | OBSERVED_MEASUREMENT
C(=Nc1c2c(nc3ccccc13)CCCC2)c1ccccc1 | acetylcholinesterase | IC50 | 230
Oc1ccccc1C=Nc1c2c(nc3ccccc13)CCCC2 | acetylcholinesterase | IC50 | 5100

Numbers sourced from patent US5013741A.
